# EC50 per record follows
target_under_test: PIKFYVE (Homo sapiens, UniProt Q9Y2I7)
Sequence (Q9Y2I7 whole entry): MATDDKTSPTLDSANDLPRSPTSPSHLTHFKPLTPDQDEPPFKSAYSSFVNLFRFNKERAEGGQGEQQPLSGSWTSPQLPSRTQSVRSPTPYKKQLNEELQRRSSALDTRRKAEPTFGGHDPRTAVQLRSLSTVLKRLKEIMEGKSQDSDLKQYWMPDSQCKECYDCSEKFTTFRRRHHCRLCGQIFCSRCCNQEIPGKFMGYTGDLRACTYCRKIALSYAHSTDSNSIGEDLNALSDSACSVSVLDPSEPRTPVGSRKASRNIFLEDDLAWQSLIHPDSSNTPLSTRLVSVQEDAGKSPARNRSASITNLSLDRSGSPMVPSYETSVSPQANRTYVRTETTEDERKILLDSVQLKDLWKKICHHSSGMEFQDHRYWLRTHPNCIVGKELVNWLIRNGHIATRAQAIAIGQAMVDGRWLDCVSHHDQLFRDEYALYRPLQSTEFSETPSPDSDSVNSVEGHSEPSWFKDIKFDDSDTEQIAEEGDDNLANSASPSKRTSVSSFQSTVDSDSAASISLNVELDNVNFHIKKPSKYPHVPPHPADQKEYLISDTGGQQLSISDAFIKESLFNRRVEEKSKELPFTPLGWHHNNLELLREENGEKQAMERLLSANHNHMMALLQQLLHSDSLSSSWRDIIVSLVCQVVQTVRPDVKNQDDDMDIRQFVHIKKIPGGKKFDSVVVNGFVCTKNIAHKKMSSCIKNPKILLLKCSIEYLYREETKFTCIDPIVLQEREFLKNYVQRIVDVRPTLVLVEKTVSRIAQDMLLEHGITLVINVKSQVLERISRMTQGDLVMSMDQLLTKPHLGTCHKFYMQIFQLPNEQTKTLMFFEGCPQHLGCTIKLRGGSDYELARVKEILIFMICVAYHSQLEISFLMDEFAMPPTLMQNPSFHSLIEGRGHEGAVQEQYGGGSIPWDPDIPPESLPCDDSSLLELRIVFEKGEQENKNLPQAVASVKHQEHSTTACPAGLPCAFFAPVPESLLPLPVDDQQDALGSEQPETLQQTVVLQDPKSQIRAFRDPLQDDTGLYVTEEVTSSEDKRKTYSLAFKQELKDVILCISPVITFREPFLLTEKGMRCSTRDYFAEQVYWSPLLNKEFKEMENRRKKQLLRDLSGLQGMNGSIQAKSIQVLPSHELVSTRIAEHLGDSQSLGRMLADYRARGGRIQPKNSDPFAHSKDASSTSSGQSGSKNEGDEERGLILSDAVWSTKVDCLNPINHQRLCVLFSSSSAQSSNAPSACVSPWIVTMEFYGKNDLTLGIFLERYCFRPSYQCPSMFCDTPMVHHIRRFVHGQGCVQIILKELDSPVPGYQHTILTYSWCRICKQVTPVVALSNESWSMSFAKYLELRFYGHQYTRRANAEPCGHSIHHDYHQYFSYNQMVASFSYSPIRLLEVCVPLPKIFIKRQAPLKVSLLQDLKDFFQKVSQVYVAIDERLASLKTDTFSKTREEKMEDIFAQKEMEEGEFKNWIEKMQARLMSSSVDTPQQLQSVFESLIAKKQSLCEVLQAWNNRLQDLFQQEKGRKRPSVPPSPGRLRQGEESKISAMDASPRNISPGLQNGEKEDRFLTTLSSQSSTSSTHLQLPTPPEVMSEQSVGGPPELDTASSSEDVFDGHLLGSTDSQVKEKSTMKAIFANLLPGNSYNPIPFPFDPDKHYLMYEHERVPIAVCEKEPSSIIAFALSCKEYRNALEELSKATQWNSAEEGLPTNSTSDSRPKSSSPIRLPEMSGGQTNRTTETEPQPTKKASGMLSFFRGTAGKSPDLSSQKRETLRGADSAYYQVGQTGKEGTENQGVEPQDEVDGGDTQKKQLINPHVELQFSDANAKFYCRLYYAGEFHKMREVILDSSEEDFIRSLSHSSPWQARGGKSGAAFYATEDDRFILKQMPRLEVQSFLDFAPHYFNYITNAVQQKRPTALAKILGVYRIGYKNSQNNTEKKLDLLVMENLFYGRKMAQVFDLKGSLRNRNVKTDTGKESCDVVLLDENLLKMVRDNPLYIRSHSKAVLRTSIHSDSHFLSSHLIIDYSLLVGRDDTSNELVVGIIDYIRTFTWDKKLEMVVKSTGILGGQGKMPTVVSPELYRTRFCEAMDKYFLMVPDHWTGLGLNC
test_summary: Cell-based Pikfyve inhibition activity assay (EEA1 staining, mean vesicle size in BJ fibroblast cells)
condition_info: Table 4, 4 hours treatment, 3 μM Apilimod = 100% inhibition

// known answers, use as guide
molecule	target_under_test	EC50
Cn1cc(CCOc2nc(N3CCOCC3)cc(-n3ccc(-c4cccc(F)c4)n3)n2)cn1	PIKFYVE (Homo sapiens, UniProt Q9Y2I7)	20 to 100 nM
Cc1cccc(-c2ccn(-c3cc(N4CCOCC4)nc(NCCO)n3)n2)c1	PIKFYVE (Homo sapiens, UniProt Q9Y2I7)	20 to 100 nM
Cc1cccc(-c2ccn(-c3cc(N4CCOCC4)nc([C@H]4C[C@@H](O)CO4)n3)n2)c1	PIKFYVE (Homo sapiens, UniProt Q9Y2I7)	100 to 500 nM
CO[C@@H](CO)c1nc(N2CCOCC2)cc(-n2ccc(-c3cn(C)c4ccccc34)n2)n1 (single isomer, unassigned)	PIKFYVE (Homo sapiens, UniProt Q9Y2I7)	500 to 5000 nM
Cc1cccc(-c2ccn(-c3cc(N4CCOCC4)nc([C@@H]4COCCO4)n3)n2)c1 (single isomer, unassigned)	PIKFYVE (Homo sapiens, UniProt Q9Y2I7)	500 to 5000 nM

(Q) Recorded EC50 for Cn1cc(CCOc2nc(N3CCOCC3)cc(-n3ccc(C4CC4)n3)n2)cn1 , please?
(A) 500 to 5000 nM

(Q) Recorded EC50 for Cc1cccc(-c2ccn(-c3cc(N4CCOCC4)nc(OCCc4cn(C)cn4)n3)n2)c1 , please?
(A) 20 to 100 nM

====

target_under_test: UniProt:Q9Y2I7
test_summary: Cell-based Pikfyve inhibition activity assay (EEA1 staining, mean vesicle size in BJ fibroblast cells)
condition_info: Table 4, 4 hours treatment, 3 μM Apilimod = 100% inhibition
value_type: EC50

compound	target_under_test	value_type	recorded_result
CO[C@@H](CO)c1nc(N2CCO[C@@H](C)C2)cc(-n2ccc(-c3cccc(C)c3)n2)n1 (single isomer, unassigned)	UniProt:Q9Y2I7	EC50	> 5000 nM
Cc1cccc(-c2ccn(-c3cc(N4CCOCC4)nc(OCCCC#N)n3)n2)c1	UniProt:Q9Y2I7	EC50	20 to 100 nM
Cn1cc(CCOc2nc(N3CCOCC3)cc(-n3ccc(-c4cccc(C#N)c4)n3)n2)cn1	UniProt:Q9Y2I7	EC50	100 to 500 nM

Now for another entry.
(Q) Recorded EC50 for OC(c1ccccc1)c1nc(N2CCOCC2)cc(-n2ccc(-c3ccccc3)n2)n1 (stereo not shown) , please?
(A) 100 to 500 nM

====

# IC50 per record follows
target_under_test: UniProt:Q9Y2I7
test_summary: PIKFYVE assay (luciferase ADP-Glo kinase assay, Promega)
Format: biochemical
condition_info: Table 3

(Q) Recorded IC50 for CC#CCOc1nc(N2CCOCC2)cc(-n2ccc(-c3cccc(C)c3)n2)n1 [Compound 103] , please?
(A) 3 to 10 nM

(Q) Recorded IC50 for CO[C@@H](CO)c1nc(N2CCOCC2)cc(-n2nc(-c3csc4ccccc34)cc2C)n1 [Compound 279] , please?
(A) 3 to 10 nM

(Q) Recorded IC50 for Cc1cccc(-c2ccn(-c3cc(N4CCOCC4)nc(C4CCOCC4)n3)n2)c1 [Compound 326] , please?
(A) 10 to 100 nM

====

target_under_test: PIKFYVE (Homo sapiens)
test_summary: Cell-based Pikfyve inhibition activity assay (EEA1 staining, mean vesicle size in BJ fibroblast cells)
condition_info: Table 4, 4 hours treatment, 3 μM Apilimod = 100% inhibition
Experimental: BJ fibroblast cells were obtained from American Type Cell Culture (ATCC, CRL-2522). […] Images were acquired with 20× objective (ImageXpress MicroConfocal, Molecular Devices) creating z-series of 5 planes (5 steps, […]), 16 tiles per well. Images were then analyzed using a custom CellProfiler protocol to obtain mean vesicle size. […]
value_type: EC50

compound	EC50
Cc1cccc(-c2ccn(-c3cc(N4CCOCC4)nc(OCC4(C)COC4)n3)n2)c1	100 to 500 nM

(Q) Recorded EC50 for Cc1cc(-c2c[nH]c3ccccc23)nn1-c1cc(N2CCOCC2)nc(C2COCCO2)n1 (single isomer, unassigned) [Compound 345] , please?
(A) < 20 nM

(Q) Recorded EC50 for CNCCc1cc(-c2ccccc2)nn1-c1cc(N2CCOCC2)nc(OCCc2cnn(C)c2)n1 , please?
(A) 20 to 100 nM

(Q) Recorded EC50 for Cc1cccc(-c2ccn(-c3cc(N4CCOCC4)nc(C#CC(O)c4cnn(C)c4)n3)n2)c1 (stereo not shown) , please?
(A) 20 to 100 nM

(Q) Recorded EC50 for Cc1cc(-c2cccc3c2OCCN3)nn1-c1cc(N2CCOCC2)nc(OCCc2cnn(C)c2)n1 , please?
(A) > 5000 nM

(Q) Recorded EC50 for CCc1cccc(-c2ccn(-c3cc(N4CCOCC4)nc([C@H](CO)OC)n3)n2)c1 , please?
(A) 100 to 500 nM

(Q) Recorded EC50 for Cc1cccc(-c2ccn(-c3cc(N4CCOCC4)nc(OCCc4cnn(CCO)c4)n3)n2)c1 , please?
(A) 20 to 100 nM

====

# IC50 per record follows
target_under_test: PIKFYVE (Homo sapiens, UniProt Q9Y2I7)
test_summary: PIKFYVE assay (luciferase ADP-Glo kinase assay, Promega)
Type: biochemical
condition_info: Table 3

molecule	recorded_result
CCc1cc(-c2ccccc2)nn1-c1cc(N2CCOCC2)nc([C@H](CO)OC)n1	10 to 100 nM
Cc1cccc(-c2ccn(-c3cc(N4CCOCC4)nc(OCCc4cn(C)cn4)n3)n2)c1	< 3 nM
COC(CC#N)c1nc(N2CCOCC2)cc(-n2ccc(-c3ccccc3)n2)n1 (stereo not shown)	10 to 100 nM

Now for another entry.
(Q) GET /values?readout=IC50&system=PIKFYVE (Homo sapiens, UniProt Q9Y2I7)&item= Cc1cccc(CC(=O)N(C)c2nc(OCCc3cnn(C)c3)cc(N3CCOCC3)n2)c1
(A) > 5000 nM

====

target_under_test: PIKFYVE (Homo sapiens, UniProt Q9Y2I7)
test_summary: PIKFYVE assay (luciferase ADP-Glo kinase assay, Promega)
Type: biochemical
condition_info: Table 3
value_type: IC50

// known answers, use as guide
molecule	target_under_test	IC50
CCc1cccc(-c2ccn(-c3cc(N4CCOCC4)nc([C@@H](CO)OC)n3)n2)c1	PIKFYVE (Homo sapiens, UniProt Q9Y2I7)	3 to 10 nM
Cc1cccc(-c2ccn(-c3cc(N4CCOCC4)nc(-n4cnc(CCO)c4)n3)n2)c1	PIKFYVE (Homo sapiens, UniProt Q9Y2I7)	3 to 10 nM
CO[C@H](CO)c1nc(N2CCOCC2)cc(-n2nc(-c3c[nH]c4ncccc34)cc2C)n1	PIKFYVE (Homo sapiens, UniProt Q9Y2I7)	10 to 100 nM
Cc1cccc(CC(=O)Nc2cc(N3CCOCC3)nc(OCCc3cnn(C)c3)n2)c1	PIKFYVE (Homo sapiens, UniProt Q9Y2I7)	100 to 5000 nM

(Q) Recorded IC50 for CN(C)Cc1cccc(-c2ccn(-c3cc(N4CCOCC4)nc(OCCc4cnn(C)c4)n3)n2)c1 , please?
(A) < 3 nM

(Q) Recorded IC50 for CO[C@H](CO)c1nc(N2CCOCC2)cc(-n2ccc(-c3cc(C)ccc3C)n2)n1 (single isomer, unassigned) , please?
(A) 10 to 100 nM

(Q) Recorded IC50 for CO[C@H](CO)c1nc(N2CCOCC2)cc(-n2nc(-c3c[nH]c4cnccc34)cc2C)n1 , please?
(A) 100 to 5000 nM

(Q) Recorded IC50 for CO[C@@H](CO)c1nc(N2CCOCC2)cc(-n2ccc(-c3cccc4[nH]ccc34)n2)n1 , please?
(A) 10 to 100 nM

(Q) Recorded IC50 for Cn1cc(C(O)c2nc(N3CCOCC3)cc(-n3ccc(-c4ccccc4)n3)n2)cn1 (stereo not drawn) , please?
(A) 10 to 100 nM

(Q) Recorded IC50 for Cn1cc(CCOc2nc(N3CCOCC3)cc(-n3ccc(-c4cccc(C#N)c4)n3)n2)cn1 , please?
(A) 10 to 100 nM

(Q) Recorded IC50 for Cc1cccc(-c2ccn(-c3cc(N4CCOCC4)nc(OCCN(C)c4ccccc4)n3)n2)c1 , please?
(A) 3 to 10 nM

(Q) Recorded IC50 for CCO[C@@H](CO)c1nc(N2CCOCC2)cc(-n2ccc(-c3cccc(C)c3)n2)n1 (single isomer, unassigned) , please?
(A) 3 to 10 nM

(Q) Recorded IC50 for CCc1cccc(-c2ccn(-c3cc(N4CCOCC4)nc([C@H](CO)OC)n3)n2)c1 , please?
(A) 3 to 10 nM

(Q) Recorded IC50 for Cc1cccc(-c2ccn(-c3cc(N4CCOCC4)nc(NCCO)n3)n2)c1 , please?
(A) 3 to 10 nM

(Q) Recorded IC50 for Cc1cccc(-c2ccn(-c3cc(N4CCOCC4)nc(CCC(O)c4cnn(C)c4)n3)n2)c1 (stereo not drawn) , please?
(A) < 3 nM

(Q) Recorded IC50 for CO[C@H](CO)c1nc(N2CCOCC2)cc(-n2nc(-c3cccc(C)c3)cc2C)n1 (single isomer, unassigned) [Compound 224] , please?
(A) 3 to 10 nM

(Q) Recorded IC50 for Cc1cccc(-c2ccn(-c3cc(N4CCOCC4)nc(NC(=O)CC4CC4)n3)n2)c1 , please?
(A) < 3 nM

(Q) Recorded IC50 for Cc1cccc(-c2ccn(-c3cc(N4CCOCC4)nc([C@H]4C[C@@H](O)CO4)n3)n2)c1 , please?
(A) 3 to 10 nM

(Q) Recorded IC50 for CO[C@@H](CO)c1nc(N2CCOCC2)cc(-n2ccc(-c3cccc4c3COC4)n2)n1 , please?
(A) 100 to 5000 nM

Just for reference, patent US20230135152A1 is where these values come from.
